# credit: PubChem BioAssay (NCATS)

Assay: qHTS assay for small molecule antagonists of retinoid X receptor alpha signaling (AID 588546);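 note: cells stimulated with 9-cis-retinoic acid as agonist; % is set by controls: 0 for no effect and ±100 for the full control effect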
Conditions: HEK293T RXRa-UAS-bla, beta-lactamase ratio, antagonist mode; measured here: W530 green channel, cytotoxicity proxy
Excerpt: NIH Chemical Genomics Center [NCGC] U.S. Environmental Protection Agency [EPA] National Institutes of Environmental Health Sciences [NIEHS] National Toxicology Program [NTP] NCGC Assay Overview The Retinoid X receptor (RXR), a nuclear hormone receptor is expressed in liver, spleen, placenta, epidermis, central nervous system. […]
Inconclusive results are not listed.
This listing pairs compounds with measured max response.
Please give a number only; it is taken to be in %.

{"compound": "CS(=O)(=O)c1ccc(C(=O)C2C(=O)CCCC2=O)c([N+](=O)[O-])c1", "scale-unit": "%", "observed-value": -0.159}
{"compound": "ClC1=C(Cl)[C@]2(Cl)[C@@H]3[C@@H]4C[C@@H]([C@H]5O[C@@H]45)[C@@H]3[C@@]1(Cl)C2(Cl)Cl", "scale-unit": "%", "observed-value": 5.74}
{"compound": "O=C(O)COc1ccccc1", "scale-unit": "%", "observed-value": 0.163}
{"compound": "Nc1ccc(Cl)cc1", "scale-unit": "%", "observed-value": -14.8}

Qu. Item under review: CCCCCCCCc1ccc(O)cc1 . Reported max response?
Ans. -5.97

Qu. Note, next up: CC(C)Oc1cccc(NC(=O)c2ccccc2C(F)(F)F)c1
Ans. 0.398

Qu. Note, next up: O=[N+]([O-])c1c(Cl)c(Cl)cc(Cl)c1Cl
Ans. -4.05

Qu. Note, next up: Nc1ccc([N+](=O)[O-])cc1
Ans. 1.67

Qu. Note, next up: CC(C)(C)C(O)C(Oc1ccc(Cl)cc1)n1cncn1 (stereo unspecified)
Ans. -12.3

Qu. Note, next up: CC(C)(O)C(=O)Nc1ccc([N+](=O)[O-])c(C(F)(F)F)c1
Ans. 15.1

Qu. Note, next up: OCCCBr
Ans. -9.62

Qu. Note, next up: O=C(O)c1cc(Oc2ccc(C(F)(F)F)cc2Cl)ccc1[N+](=O)[O-]
Ans. -4.23

Qu. Note, next up: O=C(O)COc1nc(Cl)c(Cl)cc1Cl
Ans. 0.628

Qu. Note, next up: CCOCCOC(C)=O
Ans. -4.94

Qu. Note, next up: Clc1cnc(Oc2ccc(Oc3ncc(Cl)cc3Cl)cc2)c(Cl)c1
Ans. -4.82

Qu. Note, next up: Cc1cc(O)ccc1Cl
Ans. 3.81
